target system: EGFR del19/T790M/C797S (Homo sapiens, UniProt P00533, C797S/DEL746-750/T790M)
Sequence (P00533 with tags, fused parts or gaps DEL746-750/T790M/C797S): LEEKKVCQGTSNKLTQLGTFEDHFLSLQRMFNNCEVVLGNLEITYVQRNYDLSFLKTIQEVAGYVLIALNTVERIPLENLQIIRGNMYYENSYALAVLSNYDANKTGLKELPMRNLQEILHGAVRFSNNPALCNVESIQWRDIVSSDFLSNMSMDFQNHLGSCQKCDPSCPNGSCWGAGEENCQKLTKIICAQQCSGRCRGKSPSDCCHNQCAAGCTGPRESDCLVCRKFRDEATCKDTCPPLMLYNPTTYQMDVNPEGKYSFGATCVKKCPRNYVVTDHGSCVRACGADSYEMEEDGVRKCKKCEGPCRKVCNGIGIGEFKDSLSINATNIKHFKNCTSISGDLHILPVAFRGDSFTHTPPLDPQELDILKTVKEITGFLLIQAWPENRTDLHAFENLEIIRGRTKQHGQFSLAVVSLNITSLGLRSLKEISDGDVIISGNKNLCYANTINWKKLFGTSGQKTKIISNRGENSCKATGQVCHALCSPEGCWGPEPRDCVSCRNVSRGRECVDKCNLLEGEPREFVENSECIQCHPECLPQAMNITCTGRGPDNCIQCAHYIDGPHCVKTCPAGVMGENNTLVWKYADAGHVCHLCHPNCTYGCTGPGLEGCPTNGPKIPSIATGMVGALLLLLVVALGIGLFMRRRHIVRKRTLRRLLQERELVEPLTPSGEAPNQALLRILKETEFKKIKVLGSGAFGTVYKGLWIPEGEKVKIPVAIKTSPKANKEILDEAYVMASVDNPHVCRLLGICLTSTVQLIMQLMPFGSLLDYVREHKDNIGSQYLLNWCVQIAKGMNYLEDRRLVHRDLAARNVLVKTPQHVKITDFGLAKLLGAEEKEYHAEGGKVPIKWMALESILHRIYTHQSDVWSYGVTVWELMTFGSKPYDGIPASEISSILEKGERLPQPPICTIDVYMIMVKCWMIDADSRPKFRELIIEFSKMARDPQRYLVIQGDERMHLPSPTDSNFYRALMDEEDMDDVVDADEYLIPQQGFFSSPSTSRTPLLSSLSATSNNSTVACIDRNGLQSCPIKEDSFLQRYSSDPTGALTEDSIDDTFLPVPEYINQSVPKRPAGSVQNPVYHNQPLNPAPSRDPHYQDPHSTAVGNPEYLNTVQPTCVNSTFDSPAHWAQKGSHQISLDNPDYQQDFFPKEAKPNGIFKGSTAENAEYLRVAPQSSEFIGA
method summary: Biochemical EGFR kinase assay (Lance Ultra TR-FRET), triple mutant del19/T790M/C797S
condition label: IC50 del19/T790M/C797S (nM) 100 μM ATP, 100 μM ATP
This section presents molecules with their documented IC50 values.
Field note: include the unit after the figure.

Here's what some known entries look like.
[
  {
    "molecule": "CC(C)n1ccc(-c2cnc(Nc3ccnc(-c4cnn(S(=O)(=O)C5CC5)c4)n3)cc2N[C@H]2CC[C@@](C)(O)CC2)n1 [Example 84]",
    "target system": "EGFR del19/T790M/C797S (Homo sapiens, UniProt P00533, C797S/DEL746-750/T790M)",
    "IC50": "0.6 nM"
  },
  {
    "molecule": "C[C@]1(O)CCCN(c2cc(Nc3ccnc(-c4cnn(S(=O)(=O)C5CC5)c4)n3)ncc2-c2ccn(C(F)F)n2)C1 [Example 107]",
    "target system": "EGFR del19/T790M/C797S (Homo sapiens, UniProt P00533, C797S/DEL746-750/T790M)",
    "IC50": "2.7 nM"
  }
]

Consider now this further molecule.
Exercise: Which measured IC50 value corresponds to Cn1ccc(-c2cnc(Nc3ccnc(-c4cnn(S(=O)(=O)C5CC5)c4)n3)cc2N[C@H]2CC[C@](O)(CO)CC2)n1 [Example 221] ?
Key: 0.3 nM
